GI50 for assorted compounds
# Test system: CCRF-CEM
# measurement_description: NCI tumour cell line growth inhibition, 48 h
Calls of active or inactive are those of the source. Cut-off read from the data, not from the text of the source: active = GI50 up to about 1.1 µM and inactive = higher.

Look over these answered cases.
Look at this compound and give its reported GI50. COC(=O)c1nc(Cl)nc(Cl)c1Cl
6.49 µM (inactive)

Look at this compound and give its reported GI50. COc1ccc(/C=C2/N/C(=N\N=C/C(O)C(O)C(O)C(O)CO)NC2=O)cc1 (stereo unspecified)
53.8 µM (inactive)

---
Look at this compound and give its reported GI50. COC(=O)C1CCCCCCCCCCC12SCCCS2 (stereo unspecified)
23 µM (inactive)

Look at this compound and give its reported GI50. CC1(Br)CC2OC3(Br)C=CC(C)(O)C2(CC1=O)C3(C)C (stereo unspecified)
16 µM (inactive)

Look at this compound and give its reported GI50. C=C1c2nc3ccccc3n2C=C(c2ccc(C)cc2)N1c1ccc(OC)cc1
34.4 µM (inactive)

Look at this compound and give its reported GI50. Nc1ccccc1OCc1cc(=O)c(OCc2ccccc2)co1
> 100 µM (inactive)

* * *

# System: MDA-MB-231
# measurement_description: NCI tumour cell line growth inhibition, 48 h
Active and inactive are the calls of the source. Cut-off read from the data, not from the text of the source: active = GI50 up to about 1.1 µM and inactive = higher.
Respond with a class label; see 1 (yes) = active, 0 (no) = inactive

How was COC(=O)C(Cc1ccccc1)C(=O)NC(CNC(=O)OCc1ccccc1)C(=O)OCc1ccccc1 (stereo not given) classified in this test?
0 (no)

How was Clc1ccc(Cl)c(/N=N/c2cc3c4c(c2)CCCN4CCC3)c1 classified in this test?
0 (no)

---
How was N#CCCC(C=O)(CCC#N)CCC#N classified in this test?
0 (no)

How was COC(=O)C(C)(NC(=O)C(CC(=O)OC(C)(C)C)NC(=O)OC(C)(C)C)c1ccccc1 (stereo not given) classified in this test?
0 (no)

How was COC1/C=C/C=C(/C)Cc2cc(O)c(Cl)c(c2)N(C)C(=O)CC(OC(=O)C(C)C)C2(C)OC2C(C)C2CC1(O)NC(=O)O2 (stereo not given) classified in this test?
1 (yes)

* * *

# Tested on: NCI-H23
# measurement_description: NCI tumour cell line growth inhibition, 48 h
Activity calls are given as the source filed them. Rule as the data show it: active = GI50 up to about 1.1 µM and inactive = higher.
GI50 for assorted compounds

Look over these answered cases.
Look at this compound and give its reported GI50. CC(=O)c1[nH]c(NC(C)C)c(C(=S)Nc2ccccc2)c1N
36 µM (inactive)

Look at this compound and give its reported GI50. COc1ccc(/C=C2/N/C(=N\N=C/C(O)C(O)C(O)C(O)CO)NC2=O)cc1 (stereo not drawn)
> 100 µM (inactive)

Look at this compound and give its reported GI50. Cc1ccc2nc(-n3c(/C=C/c4ccccc4O)nc4ccccc4c3=O)sc2c1
> 100 µM (inactive)

Look at this compound and give its reported GI50. C[N+](C)(N)CCC[N+](C)(C)N
> 100 µM (inactive)

---
Look at this compound and give its reported GI50. CCCCCCCCCCCC(=O)OC[C@@H](C[As](=O)(O)O)OC(=O)CCCCCCCCCCC
5.69 µM (inactive)

Look at this compound and give its reported GI50. CC(=O)Nc1ccc(S(=O)(=O)/N=C2\C=CC(=O)c3ccccc32)cc1
4.22 µM (inactive)

Look at this compound and give its reported GI50. COC(=O)N1CC2C3C4CC(C(c5ccccc5)=C4c4ccccc4)C3C21 (stereo not drawn)
20.9 µM (inactive)

Look at this compound and give its reported GI50. O=C(Sc1sc(=S)sc1SC(=O)c1ccccc1)c1ccccc1
> 100 µM (inactive)

* * *

# Test system: RXF 631
# measurement_description: NCI tumour cell line growth inhibition, 48 h
The source made the active and inactive calls. No stated cut-off is given here; in the data, active = GI50 up to about 1.1 µM and inactive = higher.
GI50 for assorted molecules

Look over these answered cases.
Look at this molecule and give its reported GI50. c1ccc(SC23C4C5C6C4C2C6C53)nc1 (stereo not drawn)
> 100 µM (inactive)

Look at this molecule and give its reported GI50. CSc1nc(-c2ccccc2)c2c(n1)-c1ccccc1CC2
> 100 µM (inactive)

Look at this molecule and give its reported GI50. O=C(/C=C/c1ccc(OCCCCCCCCCCOc2ccc(/C=C/C(=O)c3ccc(Cl)cc3)cc2)cc1)c1ccc(Cl)cc1
> 100 µM (inactive)

---
Look at this molecule and give its reported GI50. COc1ccc(/C(=N\NC(=N)N)C(c2ccc(OC)cc2)C2OC(=O)c3ccccc32)cc1 (stereo not drawn)
> 100 µM (inactive)

Look at this molecule and give its reported GI50. O=C(c1ccccc1)N1C2C3CC(OCc4ccccc4)(OCc4ccccc4)C(O3)C21 (stereo not drawn)
> 100 µM (inactive)

Look at this molecule and give its reported GI50. CCCCCN(CCCCC)C(=O)[C@@H](CCC(=O)OCc1ccccc1)NC(=O)c1cc2ccccc2[nH]1
> 100 µM (inactive)

Look at this molecule and give its reported GI50. CN(C)C(=S)Nc1nnc(Nc2ccccc2)s1
> 100 µM (inactive)

Look at this molecule and give its reported GI50. CC(=O)OC1=CC2(OC(C)=O)CC(C)(C)C1C1C(=O)C=CC(=O)C12 (stereo not drawn)
> 100 µM (inactive)

* * *

Record set of GI50 for target or system HCT-15.

Which GI50 is reported with HCT-15 for this entry: COC(=O)c1cccc2cccc(C(=O)Nc3ccc(C)cc3C)c12 ?
> 100 µM

Which GI50 is reported with HCT-15 for this entry: COc1ccc2c(c1)c(=O)c1c(NCCN(C)C)ccc3c(=O)n(CCN(C)C)c(=O)n2c31 ?
< 0.0223 µM

Which GI50 is reported with HCT-15 for this entry: CCOC(=O)C1=C(c2ccccc2)NC(c2ccccc2)=C(C(=O)OCC)c2c1c(=O)cc[nH]c2=O ?
> 100 µM

---
Which GI50 is reported with HCT-15 for this entry: CCc1cccc(C)c1NC(=O)C(=O)Cc1nc2ccccc2o1 ?
> 100 µM

Which GI50 is reported with HCT-15 for this entry: O=c1c(F)cn2c(=O)n1CCCCCCCn1c(=O)c(F)cn(c1=O)CCCCCCC2 ?
> 100 µM

* * *

# System: DLD-1
# measurement_description: NCI tumour cell line growth inhibition, 48 h
Active and inactive are the calls of the source. Rule as the data show it: active = GI50 up to about 1.1 µM and inactive = higher.
assay_readout: GI50

Look at this compound and give its reported GI50. CCOC(=O)C1(C(=O)OCC)OC(=O)NC2=C1CCCC2
> 100 µM (inactive)

Look at this compound and give its reported GI50. O=C(/C=C/c1ccc(OCCCCCCCCCCOc2ccc(/C=C/C(=O)c3ccc(Cl)cc3)cc2)cc1)c1ccc(Cl)cc1
> 100 µM (inactive)

Look at this compound and give its reported GI50. Cn1nc(-c2ccccc2)c(C(=O)/C=C/c2ccc(Cl)cc2)c(N2CCCC2)c1=O
2.69 µM (inactive)

Look at this compound and give its reported GI50. COC(=O)[C@H]1C=C[C@@H](C)n2c(=O)c3ccccc3c(=O)n21
> 100 µM (inactive)

Look at this compound and give its reported GI50. CNC1=Nc2ccc(Cl)cc2C(OP(=O)(N2CCOCC2)N2CCOCC2)=NC1
> 100 µM (inactive)

Look at this compound and give its reported GI50. CCOC(=O)NC(=O)c1cn(CCCOC(=O)NCCCCCCNC(=O)OCCCn2cc(C(=O)NC(=O)OCC)c(=O)[nH]c2=O)c(=O)[nH]c1=O
31.3 µM (inactive)

Look at this compound and give its reported GI50. O=[N+]([O-])c1cnccc1-n1nnc2ccccc21
20.2 µM (inactive)

Look at this compound and give its reported GI50. CN(C)c1ccc2nc3c(ccc4ccccc43)[o+]c2c1
5.51 µM (inactive)

Look at this compound and give its reported GI50. O=C(O)C1CCC(=O)N1S(=O)(=O)c1ccccc1 (stereo unspecified)
> 100 µM (inactive)

Look at this compound and give its reported GI50. COC(=O)C(CBr)CBr
2.04 µM (inactive)

Look at this compound and give its reported GI50. O=Cc1ccc2c(c1-c1c(C=O)ccc3c1OCO3)OCO2
> 100 µM (inactive)

* * *

# Test system: T47D
# measurement_description: NCI tumour cell line growth inhibition, 48 h
Calls of active or inactive are those of the source. No stated cut-off is given here; in the data, active = GI50 up to about 1.1 µM and inactive = higher.
Respond with a class label; see active, inactive

Answered examples (2):
How was COc1cc(/C=c2/c3ccccc3n3c2cc(-c2ccccc2)[n+]3C)cc(OC)c1OC classified in this test?
inactive

How was C=C1C(=O)OC2CC3(CO3)C3C(O)C(O)CC3(C)CC12 (centres undefined) classified in this test?
inactive

---
How was COc1ccc(C2=C(Cl)C(=O)N(c3ccc(OC)cc3OC)C(=O)C2(Cl)Cl)cc1 classified in this test?
inactive

How was C[N+]1(C)CCC(C#N)(c2ccccc2)CC1 classified in this test?
inactive

How was COC(=O)c1nc(Cl)nc(Cl)c1Cl classified in this test?
inactive

* * *

# Test system: LOX IMVI
# measurement_description: NCI tumour cell line growth inhibition, 48 h
Activity calls are given as the source filed them. Cut-off read from the data, not from the text of the source: active = GI50 up to about 1.1 µM and inactive = higher.
assay_readout: GI50

Which GI50 is reported with LOX IMVI for this entry: CC(=O)OC/C=C/Cn1nc(Br)c(=O)[nH]c1=O ?
> 100 µM (inactive)

Which GI50 is reported with LOX IMVI for this entry: CCOC(=O)c1ccc(Nc2cnc3cc(C(F)(F)F)ccc3n2)cc1 ?
> 100 µM (inactive)

Which GI50 is reported with LOX IMVI for this entry: C=CC1(NC(=O)c2ccccc2)CCC(C(C)(C)C)CC1 (configuration not stated) ?
20.3 µM (inactive)

Which GI50 is reported with LOX IMVI for this entry: CC(=O)OC12c3ccccc3-c3ccccc3C1C1C(=O)N(C)C(=O)C12Cl (configuration not stated) ?
> 10 µM (inactive)

Which GI50 is reported with LOX IMVI for this entry: c1ccc2cc3c(cc2c1)OP1(Oc2cccc4cccnc24)(O3)Oc2cc3ccccc3cc2O1 ?
3.72 µM (inactive)

Which GI50 is reported with LOX IMVI for this entry: CC(=O)Nc1ccc(S(=O)(=O)/N=C2\C=CC(=O)c3ccccc32)cc1 ?
2.04 µM (inactive)
